Cited source for all entries: patent US20110118447A1

Measured fold difference in affinity vs original accompanies every entry in the list below.
Tgt: binding partner of C5A (XPA23)
Assay Details: Biacore, K-off
Give the value in fold but do not write fold after it.

Consider the following illustrative entries.
Q: Which value of fold difference in affinity vs original has been reported for C5A (XPA23) VH T58Y (antibody, V domains shown) VH: EVQLLESGGGLVQPGGSLRLSCAASGFTFSKYFMFWVRQAPGKGLEWVSVISPSGGMYRYADSVKGRFTISRDNSKNTLYLQMNSLRAEDTAVYYCARVGYGGNSDYWGQGTLVTVSS VL: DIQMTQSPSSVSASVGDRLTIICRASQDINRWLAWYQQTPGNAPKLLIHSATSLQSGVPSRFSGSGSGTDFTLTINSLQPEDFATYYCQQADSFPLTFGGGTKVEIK in the records?
A: 1.01

Q: Endpoint output: fold difference in affinity vs original of C5A (XPA23) VH S52T (antibody, V domains shown) VH: EVQLLESGGGLVQPGGSLRLSCAASGFTFSKYFMFWVRQAPGKGLEWVSVITPSGGMTRYADSVKGRFTISRDNSKNTLYLQMNSLRAEDTAVYYCARVGYGGNSDYWGQGTLVTVSS VL: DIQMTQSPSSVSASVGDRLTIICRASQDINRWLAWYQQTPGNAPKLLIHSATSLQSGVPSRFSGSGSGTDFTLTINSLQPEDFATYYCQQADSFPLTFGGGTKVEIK . Value?
A: 0.04

With those in mind, consider the next binder.
Q: So what does the record say about fold difference in affinity vs original for C5A (XPA23) VH S105Q (antibody, V domains shown) VH: EVQLLESGGGLVQPGGSLRLSCAASGFTFSKYFMFWVRQAPGKGLEWVSVISPSGGMTRYADSVKGRFTISRDNSKNTLYLQMNSLRAEDTAVYYCARVGYGGNQDYWGQGTLVTVSS VL: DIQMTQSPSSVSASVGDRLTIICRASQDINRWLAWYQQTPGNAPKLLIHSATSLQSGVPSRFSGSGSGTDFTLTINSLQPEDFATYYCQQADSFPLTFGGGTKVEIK ?
A: 0.98
